# measured_target: P2X purinoceptor 7 (Rattus norvegicus, UniProt Q64663)
# Sequence (Q64663 whole entry): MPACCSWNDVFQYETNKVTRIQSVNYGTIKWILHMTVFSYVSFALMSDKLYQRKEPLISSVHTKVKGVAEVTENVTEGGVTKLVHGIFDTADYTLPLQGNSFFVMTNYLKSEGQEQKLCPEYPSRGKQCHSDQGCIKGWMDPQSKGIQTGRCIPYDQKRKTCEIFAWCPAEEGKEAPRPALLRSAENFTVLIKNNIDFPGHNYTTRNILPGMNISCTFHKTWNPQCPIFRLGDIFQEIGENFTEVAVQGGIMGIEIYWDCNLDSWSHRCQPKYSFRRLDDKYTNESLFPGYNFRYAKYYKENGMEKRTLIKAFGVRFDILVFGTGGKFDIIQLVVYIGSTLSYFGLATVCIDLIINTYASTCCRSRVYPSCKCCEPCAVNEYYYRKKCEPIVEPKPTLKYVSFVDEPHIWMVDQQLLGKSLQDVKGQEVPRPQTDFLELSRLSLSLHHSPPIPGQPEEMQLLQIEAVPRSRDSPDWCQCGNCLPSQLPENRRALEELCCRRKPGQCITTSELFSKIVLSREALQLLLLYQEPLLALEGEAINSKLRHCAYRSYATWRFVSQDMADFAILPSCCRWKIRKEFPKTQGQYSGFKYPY
# assay_notes: The compound was evaluated for antagonist activity against recombinant rat P2X purinoceptor 7 (P2X7)
metric_name: pEC50
One number for each entry, as −log10 of the molar value.

GET /values?readout=pEC50&item= `CCOc1ccc(Nc2ccc([C+](c3ccc(N(CC)Cc4cccc(S(=O)(=O)[O-])c4)cc3C)c3ccc(N(CC)Cc4cccc(S(=O)(=O)O)c4)cc3C)cc2)cc1`
6.40

---

# measured_target: P2X purinoceptor 3 (Rattus norvegicus)
# assay_notes: The compound was evaluated for antagonist activity against recombinant rat P2X purinoceptor 3 (P2X3) at 3 uM, expressed in Xenopus oocytes
metric_name: EC50 (µM)
Answers are plain numbers, in µM.

Any idea what EC50 came out for `Nc1ncnc2c1ncn2[C@@H]1O[C@H](CO[P@@](=O)(O)O[P@@](=O)(O)CP(=O)(O)O)[C@@H](O)[C@H]1O` on P2X purinoceptor 3 (Rattus norvegicus)?
9.2
